The reported numbers originate from patent US7858790B2.

target system: M4 muscarinic receptor (Homo sapiens, UniProt P08173)
Construct: expressed in transfected cells; host or cells: CHO (M4-CHO recombinant cell line)
Sequence (P08173 1-479): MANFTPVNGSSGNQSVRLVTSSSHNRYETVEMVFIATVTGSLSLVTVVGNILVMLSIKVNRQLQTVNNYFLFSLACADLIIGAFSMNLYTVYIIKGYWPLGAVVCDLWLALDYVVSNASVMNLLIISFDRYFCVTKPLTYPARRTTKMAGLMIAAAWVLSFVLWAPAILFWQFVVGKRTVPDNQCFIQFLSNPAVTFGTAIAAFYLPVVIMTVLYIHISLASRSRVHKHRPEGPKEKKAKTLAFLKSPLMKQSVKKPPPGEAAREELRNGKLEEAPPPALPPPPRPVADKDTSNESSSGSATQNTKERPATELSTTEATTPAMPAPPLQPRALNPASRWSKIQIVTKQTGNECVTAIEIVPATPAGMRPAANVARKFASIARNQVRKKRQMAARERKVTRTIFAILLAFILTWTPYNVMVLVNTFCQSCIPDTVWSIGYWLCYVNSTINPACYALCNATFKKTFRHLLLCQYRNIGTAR
measurement protocol: Functional mobilization of intracellular calcium (FLIPR) in CHO cells expressing M4 muscarinic receptor
Assay type: cell-based
details: CHO; 100% efficacy is the maximum response obtained with the Carbachol control
value kind: Emax

Examples from the recorded data:
CNC(=O)C1=CC2(CCN(CC3CCCCC3)CC2)c2ccccc21 :: 25 to 100%
C=CCOC(=O)N1CCC(N2CCC3(C=C(C(=O)NC(CC)CC)c4ccccc43)CC2)CC1 :: 25 to 100%
CCC(CC)NC(=O)C1=CC2(CCN(C3CCN(C(=O)C(C)C)CC3)CC2)c2ccccc21 :: < 25%
CCOC(=O)N1CCC(N2CCC3(C=C(C(=O)N(C)C)c4ccccc43)CC2)CC1 :: 25 to 100%
CCN(CC)C(=O)C1=CC2(CCN(CCC(C)(C)C)CC2)c2ccccc21 :: < 25%

Report Emax for CNC(=O)C1=CC2(CCN(C3C[C@@H]4CC[C@@H]3C4)CC2)c2ccccc21 (stereo in doubt) please.
25 to 100%

Quick one: Emax for CNC(=O)C1=CC2(CCN(CCC(C)C)CC2)c2ccccc21 ?
25 to 100%

So what does the record say about Emax for CN(C)C(=O)C1=CC2(CCN(C3CCCCC3)CC2)c2ccccc21 ?
25 to 100%

Fill in: Emax of CCC(CC)NC(=O)C1=CC2(CCN(CCCCSC)CC2)c2ccccc21 is ___
< 25%

// query Emax value for entry CCC(CC)NC(=O)C1=CC2(CCN(C3CCCC3)CC2)c2ccccc21
25 to 100%

For the compound shown here, CCC(CC)NC(=O)C1=CC2(CCN(CC3CC4C=CC3C4)CC2)c2ccccc21 (centres unmarked) , give the reported Emax.
25 to 100%

Bench note: what Emax did CCC(CC)NC(=O)C1=CC2(CCN(CCC3CCOCC3)CC2)c2ccccc21 show?
25 to 100%

Entry CC(C)(C)CCN1CCC2(C=C(C(=O)NC3CCCC3)c3ccccc32)CC1 : reported Emax = ?
< 25%

Data request, read-out Emax, for O=C(NC1CC1)C1=CC2(CCN(CC3CC4C=CC3C4)CC2)c2ccccc21 (centres unmarked)
25 to 100%

Emax lookup needed for CCOC(=O)N1CCC(N2CCC3(CC=C(C(=O)N4CCCC4)c4ccccc43)CC2)CC1 , thanks.
25 to 100%

Returns the measured Emax for the input compound. Input: CCC(CC)NC(=O)C1=CC2(CCN(C3CCCCCC3)CC2)c2ccccc21
25 to 100%

I would be grateful if you could share the reported Emax for CCC(CC)NC(=O)C1=CC2(CCN(C3CCN(C(=O)N4CCOCC4)CC3)CC2)c2ccccc21 .
< 25%

----------
target system: M1 muscarinic receptor (Homo sapiens, UniProt P11229)
Construct: expressed in transfected cells; host or cells: CHO (M1-CHO recombinant cell line)
Sequence (P11229 whole entry): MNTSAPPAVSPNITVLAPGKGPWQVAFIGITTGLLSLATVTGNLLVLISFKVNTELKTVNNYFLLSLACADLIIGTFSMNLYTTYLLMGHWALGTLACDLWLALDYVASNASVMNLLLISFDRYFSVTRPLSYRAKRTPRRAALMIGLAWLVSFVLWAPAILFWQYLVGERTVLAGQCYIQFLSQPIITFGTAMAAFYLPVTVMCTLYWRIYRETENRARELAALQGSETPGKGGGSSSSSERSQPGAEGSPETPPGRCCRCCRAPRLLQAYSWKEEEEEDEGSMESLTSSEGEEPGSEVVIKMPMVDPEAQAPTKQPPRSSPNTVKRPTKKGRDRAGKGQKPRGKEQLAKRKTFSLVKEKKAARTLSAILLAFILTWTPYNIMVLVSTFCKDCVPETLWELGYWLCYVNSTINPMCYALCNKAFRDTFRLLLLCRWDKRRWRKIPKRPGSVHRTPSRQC
measurement protocol: Functional mobilization of intracellular calcium (FLIPR) in CHO cells expressing M1 muscarinic receptor
Assay type: cell-based
details: CHO; 100% efficacy is the maximum response obtained with the Carbachol control
Measured Emax, listed per entry for reference.

See these solved cases before continuing.
CNC(=O)C1=CC2(CCN(CC3CC4C=CC3C4)CC2)c2ccccc21 (stereo not drawn) :: 25 to 100%
CC(C)(C)CCN1CCC2(CC=C(C#N)c3ccccc32)CC1 :: 25 to 100%
O=C(NC1CCC1)C1=CC2(CCN(CC3CC4C=CC3C4)CC2)c2ccccc21 (stereo not drawn) :: 25 to 100%

// Emax lookup, key: CC(C)NC(=O)C1=CC2(CCN(CCC(C)(C)C)CC2)c2ccccc21
25 to 100%

Could you share which Emax value was measured for CCOC(=O)C1=CC2(CCN(CCC(C)(C)C)CC2)c2ccccc21 ?
25 to 100%

Fill in the blank: the reported Emax of CNC(=O)C1=CC2(CCN(CCC3CCOCC3)CC2)c2ccccc21 is ____.
25 to 100%

Quick one: Emax of CCC(CC)NC(=O)C1=CC2(CCN(CCCCSC)CC2)c2ccccc21 ?
< 25%

# lookup: Emax of CCC(CC)NC(=O)C1=CC2(CCN(CCC3CCOCC3)CC2)c2ccccc21
< 25%

// lookup Emax for O=C(O)C1=CC2(CCN(C3C[C@@H]4CC[C@@H]3C4)CC2)c2ccccc21 (stereo in doubt)
25 to 100%

May I ask what Emax has been recorded for CC(C)NC(=O)C1=CCC2(CCN(C3C[C@@H]4CC[C@@H]3C4)CC2)c2ccccc21 (stereo partly drawn) ?
< 25%

# input compound: CCOC(=O)N1CCC(N2CCC3(CC=C(C#N)c4ccccc43)CC2)CC1 ; wanted: its Emax
25 to 100%

Emax lookup needed for CCOC(=O)N1CCC(N2CCC3(CC=C(C(=O)NC(C)C)c4ccccc43)CC2)CC1 , thanks.
25 to 100%
